# Test System: Recombinant human 17β-HSD13 (Homo sapiens, UniProt Q7Z5P4)
# Sequence (Q7Z5P4 20-300): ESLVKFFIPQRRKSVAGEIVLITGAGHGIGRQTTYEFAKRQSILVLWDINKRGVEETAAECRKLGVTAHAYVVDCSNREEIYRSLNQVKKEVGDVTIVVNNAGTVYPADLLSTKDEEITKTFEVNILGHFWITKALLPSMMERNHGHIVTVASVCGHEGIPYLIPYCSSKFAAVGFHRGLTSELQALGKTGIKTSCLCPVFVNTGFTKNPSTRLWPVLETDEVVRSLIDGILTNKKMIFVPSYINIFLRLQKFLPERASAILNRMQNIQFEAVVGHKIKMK
# Method Notes: 17β-HSD13 rapid-fire mass spectrometry assay (RF/MS assay)
# Measurement Context: inhibition of 17β-HSD13, RF/MS assay; HSD17B13 80 nM, LTB4 10 μM, NAD+ 0.5 mM, RT 3 h
Attribute Measured: IC50

Here's what some known entries look like.
1) O=c1c2c(nc(-c3cc(OC(F)(F)F)ccc3C3CC3)n1Cc1cnco1)sc1c(O)c(Cl)ccc12 < 0.1 µM
2) COc1ccc(-c2nc3sc4c(O)c(Cl)ccc4c3c(=O)n2Cc2cnco2)c(C(C)C)c1 < 0.1 µM
3) CCCCc1cccc2c1sc1nc(-c3ccc(OC)cc3C3CC3)n(Cc3cnco3)c(=O)c12 > 10 µM
4) COc1ccc(-c2nc3sc4c(O)cccc4c3c(=O)n2Cc2ocnc2F)c(C2CC2)c1 < 0.1 µM
5) O=c1c2c(nc(-c3cc(F)c(F)cc3C3CC3)n1Cc1cnc(C(F)(F)F)nc1)sc1c(O)c(Cl)ccc12 < 0.1 µM
6) COc1cc(C2CC2)c(-c2nc3sc4c(O)c(Cl)cc(Cl)c4c3c(=O)n2Cc2cnco2)cc1Cl 0.1 to 1 µM

Now, please, on to the next compound.
// sample COc1ccc(-c2nc3sc4c(N(C(C)=O)C(C)=O)cccc4c3c(=O)n2Cc2cnco2)c(C2CC2)c1 , its IC50 was > 10 µM

* * *

# Test System: Recombinant human 17β-HSD13 (Homo sapiens, UniProt Q7Z5P4)
# Method Notes: 17β-HSD13 rapid-fire mass spectrometry assay (RF/MS assay)
# Measurement Context: inhibition of 17β-HSD13, RF/MS assay; HSD17B13 80 nM, LTB4 10 μM, NAD+ 0.5 mM, RT 3 h
# Experimental: […] Data Analysis. 17β-HSD13 enzyme activity was measured as percent conversion of extracted ion counts and normalized to high and low controls to determine percent residual activity at various concentrations of test compounds. […] By using the above method, the inhibition of 17β-HSD13 was evaluated for the compounds of Formula (I). […]
Attribute Measured: IC50

1. COc1ccc(-c2nc3sc4c(NS(C)(=O)=O)cccc4c3c(=O)n2Cc2cnco2)c(C2CC2)c1 > 10 µM
2. COc1ccc(-c2nc3sc4c(O)c(Cl)ccc4c3c(=O)n2Cc2cn(C(F)(F)F)nn2)c(C2CC2)c1 < 0.1 µM
3. O=c1c2c(nc(-c3cc(F)c(F)cc3C3CC3)n1Cc1cnco1)sc1c(O)c(Cl)ccc12 < 0.1 µM
4. Cc1ncc(Cn2c(-c3ccc(F)cc3C3CC3)nc3sc4c(O)c(Cl)ccc4c3c2=O)o1 < 0.1 µM

// sample CC(C)(C)c1ccc(-c2nc3sc4c(O)c(Cl)ccc4c3c(=O)n2Cc2cnco2)c(C2CC2)c1 , its IC50 was < 0.1 µM

// sample COc1ccc(-c2nc3sc4c(OS(=O)(=O)O)cccc4c3c(=O)n2Cc2cnco2)c(C2CC2)c1 , its IC50 was 0.1 to 1 µM

* * *

Below, each entry is listed with its recorded IC50.
# Test System: human HSD17β13 (stable HEK293T cell line overexpressing human HSD17β13) (Homo sapiens)
# Construct: expressed in transfected cells
# Method Notes: HSD17β13 inhibitor cell-based screening assay (conversion of estradiol-d2 to estrone-d2 by RF-MS)
# Measurement Context: conversion of estradiol-d2 to estrone-d2 after 24 hours

Here's what some known entries look like.
Molecule	IC50
COc1ccc(-c2nc3sc4c(O)c(Cl)ccc4c3c(=O)n2Cc2ccc(OC)nc2)c(C2CC2)c1 [Example 160]	< 100 nM
COc1ccc(-c2nc3sc4c(O)ccc(F)c4c3c(=O)n2Cc2cnco2)c(C2CC2)c1 [Example 55]	< 100 nM
COC(=O)Cn1c(-c2ccc(OC)cc2C2CC2)nc2sc3c(O)c(Cl)ccc3c2c1=O [Example 45]	100 to 500 nM
COc1ccc(-c2nc3sc4c(O)c(Cl)ccc4c3c(=O)n2Cc2cnc(C)nc2)c(C2CC2)c1 [Example 58]	< 100 nM
O=c1c2c(nc(-c3c(C4CC4)cc(F)c(F)c3F)n1Cc1cnco1)sc1c(O)c(Cl)ccc12 [Example 147]	< 100 nM

// sample COc1ccc(C2CC2)c(-c2nc3sc4c(O)c(Cl)ccc4c3c(=O)n2Cc2cnco2)c1 [Example 83] , its IC50 was < 100 nM

// sample CCCCc1cccc2c1sc1nc(-c3ccc(OC)cc3C3CC3)n(Cc3cnco3)c(=O)c12 [Example 10] , its IC50 was 100 to 500 nM

// sample COc1ccc(-c2nc3sc4c(O)c(Cl)ccc4c3c(=O)n2Cc2ccncc2)c(C2CC2)c1 [Example 151] , its IC50 was < 100 nM

// sample COc1ccc(-c2nc3sc4c(O)c(Cl)ccc4c3c(=O)n2Cc2cnco2)c(C2CCC2)c1 [Example 117] , its IC50 was 100 to 500 nM

// sample O=c1c2c(nc(-c3ccc4ccccc4c3C3CC3)n1Cc1cnco1)sc1c(O)c(Cl)ccc12 [Example 145] , its IC50 was < 100 nM

// sample CCn1c(=O)c(C)cn(CCCn2c(-c3ccc(OC)cc3C3CC3)nc3sc4c(O)c(Cl)ccc4c3c2=O)c1=O [Example 127] , its IC50 was < 100 nM

// sample C#CCn1c(-c2ccc(OC)cc2C2CC2)nc2sc3c(O)c(Cl)ccc3c2c1=O [Example 126] , its IC50 was 100 to 500 nM

// sample COc1ccc(-c2nc3sc4c(Br)c(O)ccc4c3c(=O)n2Cc2cnco2)c(C2CC2)c1 [Example 37] , its IC50 was 1000 to 100000 nM

// sample COc1ccc(-c2nc3sc4c(O)c(Cl)ccc4c3c(=O)n2Cc2cncc(C(F)(F)F)c2)c(C2CC2)c1 [Example 154] , its IC50 was < 100 nM

// sample Cn1cc(Cn2c(-c3ccc(C(F)F)cc3C3CC3)nc3sc4c(O)c(Cl)ccc4c3c2=O)ccc1=O [Example 186] , its IC50 was < 100 nM

// sample COc1ccc(-c2nc3sc4c(O)c(Cl)ccc4c3c(=O)n2Cc2ccno2)c(C2CC2)c1 [Example 47] , its IC50 was < 100 nM

// sample Cn1cc(Cn2c(-c3ccc(S(C)(=O)=O)cc3C3CC3)nc3sc4c(O)c(Cl)ccc4c3c2=O)ccc1=O [Example 70] , its IC50 was < 100 nM

// sample O=c1c2c(nc(-c3cc(F)c(F)cc3C3CC3)n1Cc1nnc(C(F)(F)F)s1)sc1c(O)c(Cl)ccc12 [Example 217] , its IC50 was < 100 nM

// sample O=c1c2c(nc(-c3cccc(C(F)(F)F)c3C3CC3)n1Cc1cnco1)sc1c(O)c(Cl)ccc12 [Example 139] , its IC50 was < 100 nM

// sample Cn1ccc(Cn2c(-c3cc(F)c(F)cc3C3CC3)nc3sc4c(O)c(Cl)ccc4c3c2=O)cc1=O [Example 167] , its IC50 was < 100 nM

// sample COc1ccc(-c2nc3sc4c(O)c(-c5ccccc5)ccc4c3c(=O)n2Cc2cnco2)c(C2CC2)c1 [Example 35] , its IC50 was 1000 to 100000 nM

// sample O=c1c2c(nc(-c3cc(F)c(F)cc3C3CC3)n1Cc1cn[nH]c1)sc1c(O)c(Cl)ccc12 [Example 215] , its IC50 was < 100 nM

// sample COc1ccc(-c2nc3sc4c(O)c(Cl)ccc4c3c(=O)n2Cc2cnco2)c(C(C)C)c1 [Example 125] , its IC50 was < 100 nM

// sample COc1ccc(-c2nc3sc4c(O)c(Cl)ccc4c3c(=O)n2Cc2cnn(C(F)(F)F)c2)c(C2CC2)c1 [Example 201] , its IC50 was < 100 nM

// sample O=c1c2c(nc(-c3cc(F)c(F)cc3C3CC3)n1Cc1cc(C(F)F)no1)sc1c(O)c(Cl)ccc12 [Example 65] , its IC50 was < 100 nM

* * *

# Test System: human HSD17β13 (stable HEK293T cell line overexpressing human HSD17β13) (Homo sapiens, UniProt Q7Z5P4)
# Sequence (Q7Z5P4 20-300): as above
# Method Notes: HSD17β13 inhibitor cell-based screening assay (conversion of estradiol-d2 to estrone-d2 by RF-MS)
# Measurement Context: conversion of estradiol-d2 to estrone-d2 after 24 hours
pIC50: −log10 of the molar value.
Attribute Measured: pIC50

Here's what some known entries look like.
Molecule	pIC50
COc1ccc(-c2nc3sc4c(C(=O)O)cccc4c3c(=O)n2Cc2cnco2)c(C2CC2)c1 [Example 2]	4.00 to 6.00
CC(C)Oc1ccc(-c2nc3sc4c(O)c(Cl)ccc4c3c(=O)n2Cc2cnco2)c(C2CC2)c1 [Example 73]	> 7.00
CC(C)(C)c1ccc(-c2nc3sc4c(O)c(Cl)ccc4c3c(=O)n2Cc2cnco2)c(C2CC2)c1 [Example 75]	> 7.00
COc1ccc(-c2nc3sc4c(O)c(Cl)ccc4c3c(=O)n2Cc2cnco2)c(C2CC2)c1 [Example 26]	> 7.00
COc1ccc(C2=Nc3sc4c(O)c(Cl)ccc4c3C(=O)C2Cc2cc[nH]c(=O)c2)c(C2CC2)c1 (stereo not drawn) [Example 157]	6.30 to 7.00
COc1ccc(-c2nc3sc4c(N)cccc4c3c(=O)n2Cc2cnco2)c(C2CC2)c1 [Example 6]	4.00 to 6.00
COc1ccc(Cn2c(-c3cc(F)c(F)cc3C3CC3)nc3sc4c(O)c(Cl)ccc4c3c2=O)cn1 [Example 168]	> 7.00
CS(=O)(=O)c1ccc(-c2nc3sc4c(O)c(F)ccc4c3c(=O)n2Cc2cnc(C(F)(F)F)nc2)c(C2CC2)c1 [Example 71]	> 7.00
O=c1c2c(nc(-c3cc(F)c(F)cc3C3CC3)n1Cc1cnco1)sc1c(O)c(Cl)ccc12 [Example 119]	> 7.00
COc1ccc(-c2nc3sc4c(O)c(Cl)ccc4c3c(=O)n2Cc2cnco2)c(C2CCCC2)c1 [Example 121]	6.30 to 7.00

Now, please, on to the next molecule.
// sample CS(=O)(=O)c1ccc(-c2nc3sc4c(O)c(Cl)ccc4c3c(=O)n2Cc2ccc(C(F)(F)F)nc2)c(C2CC2)c1 [Example 69] , its pIC50 was > 7.00
